Cited source for all entries: paper PMC9848351

Quick reference: melting point of the listed items.
Endpoint label: melting point

Molecule	Measured result
CC(=O)Oc1cccc(-c2cc(-c3cc4ccccc4nc3N3CCOCC3)c(C#N)c(=O)[nH]2)c1 [7a]	> 300 °C
N#Cc1c(-c2cc3ccccc3[nH]c2=O)cc(-c2cccc(O)c2)nc1N [15a]	> 300 °C
N#Cc1c(-c2cc3cc(Cl)ccc3nc2N2CCCCC2)cc(-c2cccc(O)c2)[nH]c1=O [5e]	> 300 °C
COc1ccc(NC(=O)COc2nc(-c3cccc(O)c3)cc(-c3cc4cc(Cl)ccc4nc3N3CCOCC3)c2C#N)cc1 [11f]	228 to 230 °C
COc1ccc2nc(N3CCOCC3)c(-c3cc(-c4cccc(O)c4)nc(OCC(=O)Nc4ccccc4)c3C#N)cc2c1 [11g]	269 to 270 °C
N#Cc1c(-c2cc3ccccc3nc2N2CCOCC2)cc(-c2cccc(O)c2)nc1S [6a]	240 to 242 °C
COc1ccc2nc(N3CCOCC3)c(-c3cc(-c4cccc(O)c4)nc(OCC(=O)Nc4ccc(Cl)cc4)c3C#N)cc2c1 [11h]	230 to 232 °C
N#Cc1c(-c2cc3cc(Cl)ccc3nc2N2CCOCC2)cc(-c2cccc(O)c2)nc1OCC(=O)Nc1ccc(Cl)cc1 [11e]	> 300 °C
N#Cc1c(-c2cc3ccccc3nc2N2CCOCC2)cc(-c2cccc(O)c2)[nH]c1=O [5a]	> 300 °C
N#Cc1c(-c2cc3ccccc3nc2N2CCCCC2)cc(-c2cccc(O)c2)[nH]c1=O [5d]	244 to 246 °C
COc1ccc2nc(N3CCOCC3)c(-c3cc(-c4cccc(O)c4)nc(OCC(=O)O)c3C#N)cc2c1 [9c]	274 to 275 °C
COc1ccc(NC(=O)COc2nc(-c3cccc(O)c3)cc(-c3cc4cc(OC)ccc4nc3N3CCOCC3)c2C#N)cc1 [11i]	> 300 °C
N#Cc1c(-c2cc3cc(Cl)ccc3nc2N2CCOCC2)cc(-c2cccc(O)c2)nc1OCC(=O)Nc1ccccc1 [11d]	277 to 280 °C
N#Cc1c(-c2cc3ccccc3nc2N2CCOCC2)cc(-c2cccc(O)c2)nc1OCC(=O)Nc1ccc(Cl)cc1 [11b]	279 to 280 °C
CC(=O)Oc1cccc(-c2cc(-c3cc4cc(Cl)ccc4nc3N3CCOCC3)c(C#N)c(=O)[nH]2)c1 [7b]	189 to 190 °C
N#Cc1c(-c2cc3cc(Cl)ccc3[nH]c2=O)cc(-c2cccc(O)c2)[nH]c1=O [13b]	> 300 °C
N#Cc1c(-c2cc3cc(Cl)ccc3nc2N2CCOCC2)cc(-c2cccc(O)c2)nc1OCC(=O)O [9b]	279 to 280 °C
COc1ccc2[nH]c(=O)c(-c3cc(-c4cccc(O)c4)nc(N)c3C#N)cc2c1 [15c]	259 to 260 °C
COc1ccc2nc(N3CCCCC3)c(-c3cc(-c4cccc(O)c4)[nH]c(=O)c3C#N)cc2c1 [5f]	265 to 267 °C
COc1ccc2[nH]c(=O)c(-c3cc(-c4cccc(O)c4)nc(S)c3C#N)cc2c1 [14c]	278 to 280 °C
N#Cc1c(-c2cc3cc(Cl)ccc3[nH]c2=O)cc(-c2cccc(O)c2)nc1S [14b]	227 to 230 °C
N#Cc1c(-c2cc3ccccc3nc2N2CCCCC2)cc(-c2cccc(O)c2)nc1S [6d]	> 300 °C
N#Cc1c(-c2cc3cc(Cl)ccc3nc2N2CCOCC2)cc(-c2cccc(O)c2)nc1S [6b]	260 to 261 °C
N#Cc1c(-c2cc3ccccc3nc2N2CCOCC2)cc(-c2cccc(O)c2)nc1OCC(=O)O [9a]	179 to 180 °C
N#Cc1c(-c2cc3cc(Cl)ccc3[nH]c2=O)cc(-c2cccc(O)c2)nc1N [15b]	> 300 °C

---

- Tested on: normal human lung fibroblast Wi-38 cell line
- Assay details: MTT cytotoxicity on normal cells
- Type: cell-based
- Assay context: Homo sapiens; Wi-38, 72 h, MTT, 50% cell viability; mean ± SEM

Compound	EC50 / µM
N#Cc1c(-c2cc3ccccc3nc2N2CCOCC2)cc(-c2cccc(O)c2)nc1S	0.181
CC(=O)Oc1cccc(-c2cc(-c3cc4cc(Cl)ccc4nc3N3CCOCC3)c(C#N)c(=O)[nH]2)c1	0.14
N#Cc1c(-c2cc3cc(Cl)ccc3nc2N2CCOCC2)cc(-c2cccc(O)c2)nc1OCC(=O)Nc1ccc(Cl)cc1 [11e]	0.085
N#Cc1c(-c2cc3cc(Cl)ccc3nc2N2CCOCC2)cc(-c2cccc(O)c2)[nH]c1=O	0.171
COc1ccc2[nH]c(=O)c(-c3cc(-c4cccc(O)c4)nc(N)c3C#N)cc2c1 [15c]	0.121
N#Cc1c(-c2cc3ccccc3nc2N2CCOCC2)cc(-c2cccc(O)c2)nc1OCC(=O)O	0.159
N#Cc1c(-c2cc3ccccc3[nH]c2=O)cc(-c2cccc(O)c2)nc1S [14a]	0.299
N#Cc1c(-c2cc3cc(Cl)ccc3[nH]c2=O)cc(-c2cccc(O)c2)nc1N [15b]	0.264
COc1ccc2nc(N3CCOCC3)c(-c3cc(-c4cccc(O)c4)nc(S)c3C#N)cc2c1	0.376
N#Cc1c(-c2cc3cc(Cl)ccc3nc2N2CCOCC2)cc(-c2cccc(O)c2)nc1OCC(=O)Nc1ccccc1 [11d]	0.107
COc1ccc2[nH]c(=O)c(-c3cc(-c4cccc(O)c4)nc(S)c3C#N)cc2c1 [14c]	0.166
N#Cc1c(-c2cc3ccccc3nc2N2CCOCC2)cc(-c2cccc(O)c2)nc1OCC(=O)Nc1ccccc1 [11a]	0.144
N#Cc1c(-c2cc3cc(Cl)ccc3[nH]c2=O)cc(-c2cccc(O)c2)nc1S [14b]	0.196
N#Cc1c(-c2cc3ccccc3nc2N2CCCCC2)cc(-c2cccc(O)c2)nc1S	0.759
N#Cc1c(-c2cc3ccccc3[nH]c2=O)cc(-c2cccc(O)c2)nc1N [15a]	0.202
COc1ccc2nc(N3CCCCC3)c(-c3cc(-c4cccc(O)c4)[nH]c(=O)c3C#N)cc2c1	0.0298
N#Cc1c(-c2cc3cc(Cl)ccc3nc2N2CCOCC2)cc(-c2cccc(O)c2)nc1OCC(=O)O	0.171

---

- System: Caco-2
- Assay details: Flow cytometric annexin V/PI analysis of apoptosis, Caco-2
- Assay type: cell-based
- Assay context: IC50 of compound, 72 h, mean ± SEM
Quick reference: total percentage of the apoptotic cell population, Caco-2 of the listed items.
Endpoint label: total percentage of the apoptotic cell population, Caco-2 (%)

Compound	Target	Measured result
COc1cccc2c1C(=O)c1c(O)c3c(c(O)c1C2=O)C[C@@](O)(C(=O)CO)C[C@@H]3O[C@H]1C[C@H](N)[C@H](O)[C@H](C)O1 [Dox, doxorubicin, reference compound]	Caco-2	36.08
N#Cc1c(-c2cc3ccccc3[nH]c2=O)cc(-c2cccc(O)c2)nc1S [14a]	Caco-2	42.17
N#Cc1c(-c2cc3ccccc3[nH]c2=O)cc(-c2cccc(O)c2)[nH]c1=O [13a]	Caco-2	58.28
COc1ccc2[nH]c(=O)c(-c3cc(-c4cccc(O)c4)[nH]c(=O)c3C#N)cc2c1 [13c]	Caco-2	51.17
N#Cc1c(-c2cc3cc(Cl)ccc3nc2N2CCOCC2)cc(-c2cccc(O)c2)[nH]c1=O	Caco-2	44.045
COc1ccc2nc(N3CCOCC3)c(-c3cc(-c4cccc(O)c4)[nH]c(=O)c3C#N)cc2c1	Caco-2	33.89

---

Quick reference: IC50 of the listed items.
- Target: UniProt Q9P1W9
- Sequence (Q9P1W9 whole entry): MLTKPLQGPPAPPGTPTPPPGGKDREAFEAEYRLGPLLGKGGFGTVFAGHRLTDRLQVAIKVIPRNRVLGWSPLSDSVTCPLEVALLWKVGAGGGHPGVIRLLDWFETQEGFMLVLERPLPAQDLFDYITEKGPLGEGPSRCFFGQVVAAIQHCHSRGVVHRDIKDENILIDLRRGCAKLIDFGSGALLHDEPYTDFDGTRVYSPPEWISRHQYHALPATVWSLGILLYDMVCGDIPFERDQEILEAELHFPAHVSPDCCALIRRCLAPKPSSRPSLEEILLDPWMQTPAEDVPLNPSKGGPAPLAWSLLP

Compound	Output unit	IC50
N#Cc1c(-c2cc3cc(Cl)ccc3nc2N2CCOCC2)cc(-c2cccc(O)c2)[nH]c1=O [5b]	nM	670
O=c1c(O)c(-c2ccc(O)c(O)c2)oc2cc(O)cc(O)c12 [Quercetin, reference compound]	nM	610

---

- Test system: Colon cancer cells (Caco-2)
- Assay details: MTT anticancer activity, Caco-2
- Format: cell-based, human
- Assay context: ligand efficiency from IC50 and number of heavy atoms

Compound	Caco-2 LE
COc1ccc2nc(N3CCCCC3)c(-c3cc(-c4cccc(O)c4)nc(S)c3C#N)cc2c1	0.30
N#Cc1c(-c2cc3ccccc3[nH]c2=O)cc(-c2cccc(O)c2)nc1S [14a]	0.40
N#Cc1c(-c2cc3ccccc3[nH]c2=O)cc(-c2cccc(O)c2)[nH]c1=O [13a]	0.39
N#Cc1c(-c2cc3cc(Cl)ccc3nc2N2CCOCC2)cc(-c2cccc(O)c2)[nH]c1=O	0.30
COc1ccc2[nH]c(=O)c(-c3cc(-c4cccc(O)c4)[nH]c(=O)c3C#N)cc2c1 [13c]	0.35
COc1ccc2nc(N3CCOCC3)c(-c3cc(-c4cccc(O)c4)[nH]c(=O)c3C#N)cc2c1	0.30

---

- Test system: Colon cancer cells (Caco-2)
- Assay details: MTT anticancer activity, Caco-2
- Type: cell-based, human
- Assay context: ligand lipophilic efficiency, potency in terms of lipophilicity
The label is fulfilled for Caco-2 LLE below 5 and not fulfilled for Caco-2 LLE equal to or exceeding 5.

Compound	Assigned category
N#Cc1c(-c2cc3cc(Cl)ccc3nc2N2CCOCC2)cc(-c2cccc(O)c2)[nH]c1=O	fulfilled
COc1ccc2nc(N3CCOCC3)c(-c3cc(-c4cccc(O)c4)[nH]c(=O)c3C#N)cc2c1	fulfilled
N#Cc1c(-c2cc3ccccc3[nH]c2=O)cc(-c2cccc(O)c2)[nH]c1=O [13a]	not fulfilled
N#Cc1c(-c2cc3ccccc3[nH]c2=O)cc(-c2cccc(O)c2)nc1S [14a]	not fulfilled
COc1ccc2nc(N3CCCCC3)c(-c3cc(-c4cccc(O)c4)nc(S)c3C#N)cc2c1	fulfilled
